# procedure summary: Biodistribution in ddY mice
# Assay type: in vivo
# reported conditions: i.v. co-injection, 1 h
parameter: Radioactivity in Kidney

Use the examples below as a reference point.
1. COCCOc1ccc2c(c1)ncn2-c1ccc2cccc(N3CCC(NC(=O)c4cccc([125I])c4)CC3)c2n1 [[^125I]5, reference compound]: 1.57 (0.42) %injected dose/gram tissue
2. COCCOc1ccc2c(c1)ncn2-c1ccc2cccc(N3CCC(NC(=O)c4cccc([77Br])c4)CC3)c2n1 [[^77Br]3]: 2.03 (0.33) %injected dose/gram tissue
3. COCCOc1ccc2c(c1)ncn2-c1ccc2c([125I])ccc(N3CCC(N)CC3)c2n1 [[^125I]4, reference compound]: 8.18 (2.71) %injected dose/gram tissue

Any idea what its Radioactivity in Kidney is? The molecule is COCCOc1ccc2c(c1)ncn2-c1ccc2c([77Br])ccc(N3CCC(N)CC3)c2n1 [[^77Br]2]
10.12 (3.49) %injected dose/gram tissue

* * *

# procedure summary: Biodistribution in ddY mice
# Type: in vivo
# reported conditions: i.v. co-injection, 1 h
Marks after values point to notes of the source that are not given here.
parameter: Radioactivity in Heart

1. COCCOc1ccc2c(c1)ncn2-c1ccc2cccc(N3CCC(NC(=O)c4cccc([77Br])c4)CC3)c2n1 [[^77Br]3]: 1.14 (0.09) %injected dose/gram tissue
2. COCCOc1ccc2c(c1)ncn2-c1ccc2c([77Br])ccc(N3CCC(N)CC3)c2n1 [[^77Br]2]: 1.15 (0.17) %injected dose/gram tissue

Consider now this further compound.
Any idea what its Radioactivity in Heart is? The compound is COCCOc1ccc2c(c1)ncn2-c1ccc2c([125I])ccc(N3CCC(N)CC3)c2n1 [[^125I]4, reference compound]
1.23 (0.49) %injected dose/gram tissue

* * *

# Tested on: BxPC3-luc tumor
# procedure summary: Biodistribution in BxPC3-luc tumor-bearing mice
# Assay type: in vivo, BALB/c nu/nu mice
# reported conditions: i.v. co-injection, 1 h
Marks after values point to notes of the source that are not given here.
For each of the compounds below, state its Radioactivity in Stomach.

Use the examples below as a reference point.
1) COCCOc1ccc2c(c1)ncn2-c1ccc2cccc(N3CCC(NC(=O)c4cccc([77Br])c4)CC3)c2n1 [[^77Br]3]: 0.67 (0.14) %injected dose /organ
2) COCCOc1ccc2c(c1)ncn2-c1ccc2c([125I])ccc(N3CCC(N)CC3)c2n1 [[^125I]4, reference compound]: 0.97 (0.19) %injected dose /organ
3) COCCOc1ccc2c(c1)ncn2-c1ccc2cccc(N3CCC(NC(=O)c4cccc([125I])c4)CC3)c2n1 [[^125I]5, reference compound]: 0.27 (0.06)^* %injected dose /organ

Notebook entry, BxPC3-luc tumor assay: Radioactivity in Stomach of COCCOc1ccc2c(c1)ncn2-c1ccc2c([77Br])ccc(N3CCC(N)CC3)c2n1 [[^77Br]2] = ?
0.96 (0.20) %injected dose /organ

* * *

For each of the compounds below, state its Radioactivity in Blood.
# procedure summary: Biodistribution in ddY mice
# Type: in vivo
# reported conditions: i.v. co-injection, 1 h
Marks after values point to notes of the source that are not given here.

Use the examples below as a reference point.
1) COCCOc1ccc2c(c1)ncn2-c1ccc2cccc(N3CCC(NC(=O)c4cccc([77Br])c4)CC3)c2n1 [[^77Br]3]: 0.65 (0.05) %injected dose/gram tissue
2) COCCOc1ccc2c(c1)ncn2-c1ccc2c([77Br])ccc(N3CCC(N)CC3)c2n1 [[^77Br]2]: 0.28 (0.06) %injected dose/gram tissue

Any idea what its Radioactivity in Blood is? The compound is COCCOc1ccc2c(c1)ncn2-c1ccc2c([125I])ccc(N3CCC(N)CC3)c2n1 [[^125I]4, reference compound]
0.32 (0.09) %injected dose/gram tissue
